Tested on: Plasmodium berghei
Experiment: Luciferase/luciferin-expressing antifolate-resistant parasites were used to infect a culture of HepG2 cells that were pre-incubated with compounds. Infected hepatocytes emit light due to the luciferase reaction. Assay results are presented as the percent inhibition of light emission compared to control. […]
Assay type: functional
Details: sporozoite, HEPG2TOX_HILL_SLOPE 15.7, HEPG2TOX_R_SQUARED 0.806, PBLUC_HILL_SLOPE 104, PBLUC_R_SQUARED 0.398, read-out: LUCIFERASE INFECTION ASSAY - IC50
property: IC50 (µM)
Express the result in µM but write the number alone.

For the record COc1cccc(NC(=O)N2CCc3nc(NCc4cccc(Oc5ccccc5)c4)ncc3C2)c1 , what value of IC50 is listed for Plasmodium berghei?
3.59

Every entry's value here was drawn from ChEMBL document CHEMBL4483862.
